Please provide measured pKd for the entries that follow.
# measured-target: T1, human VEGF (human, UniProt P15692-4 27-191)
# T1 construct: Bought recombinant protein; also called hVEGF; human VEGF-A
# T1 sequence (P15692 other isoform, or with tags, fused parts or gaps limits assumed): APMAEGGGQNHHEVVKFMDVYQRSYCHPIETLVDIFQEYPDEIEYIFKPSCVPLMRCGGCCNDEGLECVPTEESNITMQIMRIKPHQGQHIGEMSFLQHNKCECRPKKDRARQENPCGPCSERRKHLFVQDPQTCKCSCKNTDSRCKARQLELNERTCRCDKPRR
# protocol-text: SPR (BIAcore X100), VEGF on CM5 chip, IgG injected, 1:1 Langmuir
Give bare numbers, as −log10 of the molar value.

See these solved cases before continuing.
* HF2-5 (antibody, V domains shown, also called HF-5) VH: EVQLVESGGGLVQPGGSLRLSCAASGFMIRSHGMQWVRQAPGKGLEYVAGISSDGSWARHSAAVEGRFTISRDDSKNTAYLQMNSLRAEDTAVYYCARDFSTGYGADSIDAWGQGTLVTVSS VL: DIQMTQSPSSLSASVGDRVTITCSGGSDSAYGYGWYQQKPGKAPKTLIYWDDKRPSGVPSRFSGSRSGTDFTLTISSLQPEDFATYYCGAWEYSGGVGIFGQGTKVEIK | 10.72
* HF2-8 (antibody, V domains shown, also called HF-8) VH: EVQLVESGGGLVQPGGSLRLSCAASGFHIRSHGMQWVRQAPGKGLEYVAGISSDGSWLKLSAAVEGRFTISRDDSKNTAYLQMNSLRAEDTAVYYCARDFSTGYGADSIDAWGQGTLVTVSS VL: DIQMTQSPSSLSASVGDRVTITCSGGSTYSLGYGWYQQKPGKAPKTLIYWDDKRPSGVPSRFSGSRSGTDFTLTISSLQPEDFATYYCGAWEYSGGVGIFGQGTKVEIK | 10.44

Moving on to the next binder.
Give a short answer stating reported pKd for HF2-9 (antibody, V domains shown, also called HF-9) VH: EVQLVESGGGLVQPGGSLRLSCAASMFRIRSHGMQWVRQAPGKGLEYVAGISSDGSWFRVAAAVEGRFTISRDDSKNTAYLQMNSLRAEDTAVYYCARDFSTGYGADSIDAWGQGTLVTVSS VL: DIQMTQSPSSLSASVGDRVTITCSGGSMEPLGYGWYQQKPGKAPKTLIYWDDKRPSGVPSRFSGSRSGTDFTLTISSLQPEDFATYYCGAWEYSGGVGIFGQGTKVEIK .
10.74
